Tgt: Transcription regulator protein BACH1 (Homo sapiens) (UniProt O14867)
Sequence (O14867 whole entry): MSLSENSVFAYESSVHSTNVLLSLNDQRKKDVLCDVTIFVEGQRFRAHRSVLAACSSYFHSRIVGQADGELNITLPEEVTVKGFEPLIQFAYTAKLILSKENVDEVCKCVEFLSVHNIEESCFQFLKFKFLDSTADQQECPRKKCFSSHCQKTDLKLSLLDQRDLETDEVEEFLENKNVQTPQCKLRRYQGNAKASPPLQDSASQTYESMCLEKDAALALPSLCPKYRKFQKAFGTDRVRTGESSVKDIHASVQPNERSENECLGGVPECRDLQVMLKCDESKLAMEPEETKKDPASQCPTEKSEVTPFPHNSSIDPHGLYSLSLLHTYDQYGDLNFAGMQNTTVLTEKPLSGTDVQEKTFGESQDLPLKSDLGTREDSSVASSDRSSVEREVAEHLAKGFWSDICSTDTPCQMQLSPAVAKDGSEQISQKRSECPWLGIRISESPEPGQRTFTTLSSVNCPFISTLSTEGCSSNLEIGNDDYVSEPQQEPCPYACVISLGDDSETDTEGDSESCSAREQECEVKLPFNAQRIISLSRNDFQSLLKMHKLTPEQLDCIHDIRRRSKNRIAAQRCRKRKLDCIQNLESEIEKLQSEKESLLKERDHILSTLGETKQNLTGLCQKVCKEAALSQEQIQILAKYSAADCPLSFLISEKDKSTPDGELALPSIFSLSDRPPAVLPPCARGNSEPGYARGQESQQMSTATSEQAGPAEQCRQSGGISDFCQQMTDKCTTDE
Test description: Inhibition of Bach1 in normal human lung fibroblasts assessed as induction of HMOX protein expression at 0.019 uM incubated for 16 to 18 hrs by immunostaining relative to control
Property: fold change (FC)
In your answer, state the number alone without any accompanying words.

INPUT: Please list fold change (FC) recorded for the molecule `Cn1c(Nc2nc3ccc(C(F)(F)F)cc3s2)nc2cc(C(=O)NCCOCCO)ccc21`
OUTPUT: 2.08

INPUT: Please list fold change (FC) recorded for the molecule `COCCNC(=O)c1cnc2c(c1)nc(Nc1nc3ccc(OC(F)(F)F)cc3s1)n2C`
OUTPUT: 1.24

INPUT: Please list fold change (FC) recorded for the molecule `CN(C)C(=O)CNC(=O)c1ccc2c(c1)nc(Nc1nc3ccc(C(F)(F)F)cc3s1)n2C`
OUTPUT: 1.29

INPUT: Please list fold change (FC) recorded for the molecule `CNC(=O)c1ccc2c(c1)nc(Nc1nc3ccc(OC(F)(F)F)cc3s1)n2C`
OUTPUT: 0.97

====

Tgt: UniProt:O14867
Test description: Inhibition of Bach1 in normal human lung fibroblasts assessed as induction of HMOX protein expression at 0.039 uM incubated for 16 to 18 hrs by immunostaining relative to control
# key: entry, value: fold change (FC)
In your answer, state the number alone without any accompanying words.

Past entries and their recorded results:
Molecule smiles | fold change (FC)
Cn1c(Nc2nc3ccc(C(F)(F)F)cc3s2)nc2cc(C(=O)NCCOCCO)ccc21 | 2.51
CNC(=O)c1ccc2c(c1)nc(Nc1nc3ccc(OC(F)(F)F)cc3s1)n2C | 1.09
COCCNC(=O)c1cnc2c(c1)nc(Nc1nc3ccc(OC(F)(F)F)cc3s1)n2C | 1.45

INPUT: Please list fold change (FC) recorded for the compound `CN(C)C(=O)CNC(=O)c1ccc2c(c1)nc(Nc1nc3ccc(C(F)(F)F)cc3s1)n2C`
OUTPUT: 1.37

====

Tgt: UniProt:O14867
Test description: Inhibition of Bach1 in normal human lung fibroblasts assessed as induction of HMOX protein expression at 0.078 uM incubated for 16 to 18 hrs by immunostaining relative to control
# key: entry, value: fold change (FC)
In your answer, state the number alone without any accompanying words.

Molecule smiles | Tgt | Property | Numeric result
CN(C)C(=O)CNC(=O)c1ccc2c(c1)nc(Nc1nc3ccc(C(F)(F)F)cc3s1)n2C | UniProt:O14867 | fold change (FC) | 1.59
COCCNC(=O)c1cnc2c(c1)nc(Nc1nc3ccc(OC(F)(F)F)cc3s1)n2C | UniProt:O14867 | fold change (FC) | 1.46
CNC(=O)c1ccc2c(c1)nc(Nc1nc3ccc(OC(F)(F)F)cc3s1)n2C | UniProt:O14867 | fold change (FC) | 1.92

--- query ---
INPUT: Please list fold change (FC) recorded for the compound `Cn1c(Nc2nc3ccc(C(F)(F)F)cc3s2)nc2cc(C(=O)NCCOCCO)ccc21`
OUTPUT: 4.34
